B1: ANKRD9 (parent)
chain: VGAAGSARQELLGDRPRWQRLLGE

Variants of: B1
test.details: protein stability index of a GFP-peptide fusion (GPS, HEK-293T) (PSI 1-6); higher = more stable;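 note: lentivirally expressed fusions sorted by FACS into six bins by GFP to DsRed ratio, PSI derived from sequencing read proportions per bin multiplied by bin number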
assay.context: c terminus: a fixed tail appended
// protein stability index lookup, one value per entry

{"polymer.sequence": "DGAAGSARQELLGDRPRWQRLLGE [V1D]", "protein stability index": 4.49}
{"polymer.sequence": "VGAAGSARQELLWDRPRWQRLLGE [G13W]", "protein stability index": 1.9}
{"polymer.sequence": "VGAAGSARQELLGDRPRWQRLLGD [E24D]", "protein stability index": 3.13}
{"polymer.sequence": "VGAAGSARQELLGPRPRWQRLLGE [D14P]", "protein stability index": 3.13}
{"polymer.sequence": "VGAAGSARTELLGDRPRWQRLLGE [Q9T]", "protein stability index": 3.13}
{"polymer.sequence": "VGAAGSARQENLGDRPRWQRLLGE [L11N]", "protein stability index": 3.71}
{"polymer.sequence": "VGAAGSARPELLGDRPRWQRLLGE [Q9P]", "protein stability index": 3.29}
{"polymer.sequence": "VGAAGSAREELLGDRPRWQRLLGE [Q9E]", "protein stability index": 2.11}
{"polymer.sequence": "VGAAGSYRQELLGDRPRWQRLLGE [A7Y]", "protein stability index": 2.43}
{"polymer.sequence": "VGAAGSARQELLGDRPRWQRLLGA [E24A]", "protein stability index": 3}
{"polymer.sequence": "VGAAGSARQELLGVRPRWQRLLGE [D14V]", "protein stability index": 2.27}

Values compiled from the supplement of paper PMC10567573.
